Data provenance: patent US20220112288A1

- targetEntity: T1, human CD4 on the surface of SKW3 cells or human PBMCs (human, UniProt P01730 26-458)
- T1 construct: whole, on cells; SKW3 CD4 knockout cells served as the negative cell line; also called hCD4; SKW3 WT
- assayMethodText: FACS primary screen, non-clonal hybridoma supernatant, SKW3 vs SKW3 CD4 KO cells, anti-human kappa FITC
Give SKW3 WT vs KO anti-hKappa-FITC for every item shown.

Record summary for 75110_03C01A (antibody, V domains shown, Tested here as non-clonal hybridoma supernatant from AlivaMab Mouse Kappa mice (detected with anti-mouse Fc and anti-human kappa)) VH: QVQLQQWGAGLLKPSETLSLTCAVYGGSFSGYYWSWIRQSPGKGLEWIGEINQSGSTNYNPSLKSRVTISVDTSKDQFSLKLSSVTAADTAVYYCARVINWFDSWGQGSLVTVSS VL: DIQMTQSPSSVSASVGDRVTITCRASQGISSWLAWYQQKPGNAPKLLIYDASSFQSGVPSRFSGSGSGTDFTLTISSLQTEDFATYYCQQANSFPYTFGQGTKLEIK : reported SKW3 WT vs KO anti-hKappa-FITC = 2.4 ratio

Data point: 75110_11D03A (antibody, V domains shown, Tested here as non-clonal hybridoma supernatant from AlivaMab Mouse Kappa mice (detected with anti-mouse Fc and anti-human kappa)) VH: EVQLVESGGGLVQPGGSLRLSCAASGFTFSSYWMSWVRQAPGKGLEWVANINQDGNEKYYVDSVKGRFTISRDNAKNSLFLQMNSLRAEDTAVYYCAREGGQWLALDYWGQGALVTVSS VL: DIQMTQSPSSVSASVGDRVTITCRASQGISSWLAWYQQKPGKAPKFLISGASSLQSGVPSRFSGSGSGTDFTLTISSLQPEDFATYYCQQANSFPWTFGQGTKVEIK ; SKW3 WT vs KO anti-hKappa-FITC = 1 ratio

Documented SKW3 WT vs KO anti-hKappa-FITC of 75110_01J09A (antibody, V domains shown, Tested here as non-clonal hybridoma supernatant from AlivaMab Mouse Kappa mice (detected with anti-mouse Fc and anti-human kappa)) VH: EVQLVESGGGLVQPGGSLRLSCVASGFTFSSYWMSWVRQAPGKGLEWVANTKEDGSDKYYVDSVKGRFTICRDNAKNSLYLQMNSLRAEDTAVYYCAREGGQWLALDYWGQGTLVTVSS VL: DIQMTQSPSSVSASVGDRVTINCRASQGISSWLAWYQQKPGKAPNLLIFGASSLQSGVPSRFSGSGFGTDFSLTITTLQPEDFATYHCQQANSFPWTFGQGTKVEIK : 2.4 ratio

Reported SKW3 WT vs KO anti-hKappa-FITC ( 75110_09N20A (antibody, V domains shown, Tested here as non-clonal hybridoma supernatant from AlivaMab Mouse Kappa mice (detected with anti-mouse Fc and anti-human kappa)) VH: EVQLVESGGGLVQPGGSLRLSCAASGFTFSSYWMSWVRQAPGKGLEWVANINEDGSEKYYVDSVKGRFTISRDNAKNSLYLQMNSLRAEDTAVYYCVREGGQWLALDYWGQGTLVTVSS VL: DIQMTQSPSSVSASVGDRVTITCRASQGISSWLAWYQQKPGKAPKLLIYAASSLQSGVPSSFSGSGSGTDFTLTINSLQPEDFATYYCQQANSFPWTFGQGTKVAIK ) = 2.2 ratio

Lookup result for 75110_05B13A (antibody, V domains shown, Tested here as non-clonal hybridoma supernatant from AlivaMab Mouse Kappa mice (detected with anti-mouse Fc and anti-human kappa)) VH: QVLLEQWGAGLLKPSETLSLTCAVYGGSFSGYYWTWIRQPPGKGLEWIGEINHRGSTNYNPSLKSRVTISIDTSKNQFSLKVKSVTAADTAMYYCTRPDSNWFDPWGQGTLVTVSS VL: DIQMTQSPSSVSASVGDRVTITCRASQDISNWLAWYQQKPGKAPKLLIFAASSLQSGVPSRFSGSGSGTDFTLTISSLQPEDFATYYCQQANSFPLTFGGGTKVEIK ; measured SKW3 WT vs KO anti-hKappa-FITC: 2.4 ratio

// field: SKW3 WT vs KO anti-hKappa-FITC; key: 75110_04B08A (antibody, V domains shown, Tested here as non-clonal hybridoma supernatant from AlivaMab Mouse Kappa mice (detected with anti-mouse Fc and anti-human kappa)) VH: QVQLVESGGGVVQPGRSLRLSCTASGFNFINYGIHWVRQAPGKGLEWVTIIWYDGSKKYYADSVKGRFAISRDNSKNTLYLQMNSLRAEDTAVYYCAREDDWNDGLAYWGQGTLVTVSS VL: AIQMTQSPSSLSASVGDRVTITCRASQDIRNDLGWYQQKPGKAPNLLIYAASNLQSGVPSRFSGSGSGTDFTLTISSLQPEDFATYYCLQDSNYPRTFGQGTKVEIK ; value = 2.3 ratio
